Test system: IMC-1 (IL-2 20 ng/mL)
Assay: percent inhibition of viability; higher = more inhibition
Conditions: 72 h; 1000 nM
Simple rule here: percent inhibition of viability less than 10% is Condition met, otherwise Condition not met.

// known answers, use as guide
{"Compound": "O=C(CCCCCCC(=O)Nc1ccccc1)NO [Vorinostat] (max concentration tested 10000 nM)", "Classification": "Condition not met"}
{"Compound": "Cn1c(CCCC(=O)O)nc2cc(N(CCCl)CCCl)ccc21 [Bendamustine] (max concentration tested 10000 nM)", "Classification": "Condition met"}
{"Compound": "NC(=O)Nc1cc(-c2cccc(F)c2)sc1C(=O)N[C@H]1CCCNC1 [AZD7762] (max concentration tested 1000 nM)", "Classification": "Condition not met"}
{"Compound": "C=CCN(/C=C1/C(=O)O[C@H](COC)[C@@]2(C)C1=C(O)C(=O)C1=C2[C@H](OC(C)=O)C[C@]2(C)C(=O)CC[C@@H]12)CC=C [Sonolisib] (max concentration tested 10000 nM)", "Classification": "Condition met"}
{"Compound": "NC(=O)c1cccc(-c2cccc(OC(=O)NC3CCCCC3)c2)c1 [URB597] (max concentration tested 1000 nM)", "Classification": "Condition met"}

Does c1ccc(Cn2c(-c3ccc(OC[C@H](C4CCNCC4)n4c(-c5ccccc5)nc5ccccc54)cc3)nc3ccccc32)cc1 [deltarasin] (max concentration tested 10000 nM) have percent inhibition of viability strictly under 10%?
Condition met

Does Cc1c(N)nc([C@H](CC(N)=O)NC[C@H](N)C(N)=O)nc1C(=O)N[C@H](C(=O)N[C@H](C)[C@@H](O)[C@H](C)C(=O)N[C@H](C(=O)NCCc1nc(-c2nc(C(=O)NCCC[S+](C)C)cs2)cs1)[C@@H](C)O)[C@@H](OC1OC(CO)C(O)C(O)C1OC1OC(CO)C(O)C(OC(N)=O)C1O)c1cnc[nH]1 (stereo partly specified) [Bleomycin] (max concentration tested 10000 nM) have percent inhibition of viability strictly under 10%?
Condition not met

Does C[C@]12O[C@H](C[C@]1(O)CO)n1c3ccccc3c3c4c(c5c6ccccc6n2c5c31)CNC4=O [Lestaurtinib] (max concentration tested 1000 nM) have percent inhibition of viability strictly under 10%?
Condition not met

Does COc1cc(CCc2cc(NC(=O)c3ccc(N4CC(C)NC(C)C4)cc3)n[nH]2)cc(OC)c1 (stereo unspecified) [AZD4547] (max concentration tested 1000 nM) have percent inhibition of viability strictly under 10%?
Condition not met

Does COc1cc(OC)c(/C=C/S(=O)(=O)Cc2ccc(OC)c(NCC(=O)O)c2)c(OC)c1 [Rigosertib] (max concentration tested 10000 nM) have percent inhibition of viability strictly under 10%?
Condition not met

###

Test system: KAI3 (IL-2 2.5 ng/mL)
Assay: percent inhibition of viability; higher = more inhibition
Details: 72 h; 100 nM
Endpoint: percent inhibition of viability (%)
Please reply with the bare figure in % and do not write the unit itself.

Known results for compounds:
{"Compound": "Cn1c(=O)n(-c2ccc(C(C)(C)C#N)cc2)c2c3cc(-c4cnc5ccccc5c4)ccc3ncc21 [Dactolisib] (max concentration tested 1000 nM)", "Unit spec": "%", "Observed value": 68.8}
{"Compound": "C[C@]12CC[C@@H]3c4ccc(O)cc4C[C@@H](CCCCCCCCC[S+]([O-])CCCC(F)(F)C(F)(F)F)[C@H]3[C@@H]1CC[C@@H]2O (stereo not given in full) [Fulvestrant] (max concentration tested 1000 nM)", "Unit spec": "%", "Observed value": 5.9}
{"Compound": "C[C@]12O[C@H](C[C@]1(O)CO)n1c3ccccc3c3c4c(c5c6ccccc6n2c5c31)CNC4=O [Lestaurtinib] (max concentration tested 1000 nM)", "Unit spec": "%", "Observed value": 86.4}
{"Compound": "Cc1csc(-c2nnc(Nc3ccc(Oc4ncccc4-c4ccnc(N)n4)cc3)c3ccccc23)c1 [AMG-900] (max concentration tested 1000 nM)", "Unit spec": "%", "Observed value": 20.4}

So the reported percent inhibition of viability for CN1CCN(c2nc(C3=C(c4c[nH]c5ccccc45)C(=O)NC3=O)c3ccccc3n2)CC1 [Sotrastaurin] (max concentration tested 10000 nM) , on KAI3 (IL-2 2.5 ng/mL), turned out to be 0.83

###

// reported percent inhibition of viability per item
System: normal primary NK cells, pool 3 (3 donors) (IL-2 2.5 ng/mL)
Assay: percent inhibition of viability; higher = more inhibition
Conditions: 72 h; 2500 nM
Please reply with the bare figure in % and do not write the unit itself.

compound O=C(Nc1cc(Cl)cc2c1[nH]c1cnccc12)c1cccnc1 [PS-1145] (max concentration tested 25000 nM) , percent inhibition of viability observed: 14.6

compound C[C@@H]1CN(CC(=O)Nc2ccc3c(c2)Cc2cccc(-c4cc(=O)cc(N5CCOCC5)o4)c2S3)C[C@H](C)O1 (max concentration tested 25000 nM) , percent inhibition of viability observed: -0.76

compound CN[C@@H](C)C(=O)N[C@H](C(=O)N1CCC[C@H]1c1nc(C(=O)c2ccc(F)cc2)cs1)C1CCCCC1 [LCL161] (max concentration tested 25000 nM) , percent inhibition of viability observed: 51.1

compound CC(C)(C)c1nc(-c2cccc(NS(=O)(=O)c3c(F)cccc3F)c2F)c(-c2ccnc(N)n2)s1 [Dabrafenib] (max concentration tested 2500 nM) , percent inhibition of viability observed: -0.02

compound CC(C)Cn1cnc2c(N)nc3ccccc3c21 [Imiquimod] (max concentration tested 2500 nM) , percent inhibition of viability observed: 6.93

###

System: YT (IL-2 2.5 ng/mL)
Assay: percent inhibition of viability; higher = more inhibition
Conditions: 72 h; 1000 nM
Simple rule here: percent inhibition of viability less than 20% is Condition met, otherwise Condition not met.

{"Compound": "CCc1cnn2c(NCc3ccc[n+]([O-])c3)cc(N3CCCC[C@H]3CCO)nc12 [Dinaciclib] (max concentration tested 1000 nM)", "Classification": "Condition not met"}

Does C=CCn1c(=O)c2cnc(Nc3ccc(N4CCN(C)CC4)cc3)nc2n1-c1cccc(C(C)(C)O)n1 [MK1775] (max concentration tested 10000 nM) have percent inhibition of viability strictly under 20%?
Condition not met

Does CN(N=O)C(=O)N[C@@H](C=O)[C@@H](O)[C@H](O)[C@H](O)CO [Streptozocin] (max concentration tested 10000 nM) have percent inhibition of viability strictly under 20%?
Condition met

Does CC(C)[C@H](C(=O)Nc1ccc(C(=O)NO)cc1)c1ccccc1 [AR-42] (max concentration tested 10000 nM) have percent inhibition of viability strictly under 20%?
Condition not met

Does CC1(COc2ccc3c(c2)ncn3-c2ccc3cccc(N4CCC(N)CC4)c3n2)COC1 [Crenolanib] (max concentration tested 10000 nM) have percent inhibition of viability strictly under 20%?
Condition not met

Does N#CC1(c2ccc(NC(=O)c3cccnc3NCc3ccncc3)cc2)CCCC1 [Apatinib] (max concentration tested 10000 nM) have percent inhibition of viability strictly under 20%?
Condition met

###

System: KAI3 (IL-2 2.5 ng/mL)
Assay: percent inhibition of viability; higher = more inhibition
Conditions: 72 h; 1000 nM
// reported percent inhibition of viability per item
Please reply with the bare figure in % and do not write the unit itself.

Known results for molecules:
{"Molecule": "CCC1(c2ccc(N)cc2)CCC(=O)NC1=O (stereo unspecified) [Aminoglutethimide] (max concentration tested 10000 nM)", "Unit spec": "%", "percent inhibition of viability": 9.73}
{"Molecule": "CC[C@H](CC#N)OC(=O)N[C@@H](C)c1cccc(NC(=O)Nc2ccc(-c3cnco3)c(OC)c2)c1 [AVN944] (max concentration tested 10000 nM)", "Unit spec": "%", "percent inhibition of viability": 101}
{"Molecule": "CCCCCCCCc1ccc(CCC(N)(CO)CO)cc1 [Fingolimod] (max concentration tested 10000 nM)", "Unit spec": "%", "percent inhibition of viability": 21.5}
{"Molecule": "CC(C)Oc1cc(Nc2nc(N[C@@H](C)c3ccc(F)cn3)ncc2Cl)n[nH]1 [AZ-23] (max concentration tested 1000 nM)", "Unit spec": "%", "percent inhibition of viability": 33.3}
{"Molecule": "Cc1c(CN2CCN(C(=O)[C@H](C)O)CC2)sc2c(N3CCOCC3)nc(-c3cnc(N)nc3)nc12 [Apitolisib] (max concentration tested 10000 nM)", "Unit spec": "%", "percent inhibition of viability": 39.6}

Below: the item to evaluate.
So the reported percent inhibition of viability for NC(=O)c1cccc(-c2cccc(OC(=O)NC3CCCCC3)c2)c1 [URB597] (max concentration tested 1000 nM) , on KAI3 (IL-2 2.5 ng/mL), turned out to be 16.1

###

Test system: NK-92 (IL-2 2.5 ng/mL)
Test: drug sensitivity score (DSS) (DSS units); higher = more sensitive; extreme values may be limits of the assay
Settings: 72 h
// reported drug sensitivity score per item
Write no unit; give the number alone.

Known results for molecules:
{"Molecule": "Cc1c(N)nc([C@H](CC(N)=O)NC[C@H](N)C(N)=O)nc1C(=O)N[C@H](C(=O)N[C@H](C)[C@@H](O)[C@H](C)C(=O)N[C@H](C(=O)NCCc1nc(-c2nc(C(=O)NCCC[S+](C)C)cs2)cs1)[C@@H](C)O)[C@@H](OC1OC(CO)C(O)C(O)C1OC1OC(CO)C(O)C(OC(N)=O)C1O)c1cnc[nH]1 (some centres undefined) [Bleomycin] (max concentration tested 10000 nM)", "Observed value": 13.2}
{"Molecule": "COc1cc([C@@H]2c3cc4c(cc3[C@@H](O[C@@H]3O[C@@H]5CO[C@@H](C)O[C@H]5[C@H](O)[C@H]3O)[C@H]3COC(=O)[C@H]23)OCO4)cc(OC)c1O [Etoposide] (max concentration tested 10000 nM)", "Observed value": 13.7}
{"Molecule": "NC1(c2ccc(-c3nc4ccn5c(=O)[nH]nc5c4cc3-c3ccccc3)cc2)CCC1 [MK-2206] (max concentration tested 1000 nM)", "Observed value": 4.95}

molecule CC(C)Cn1cnc2c(N)nc3ccccc3c21 [Imiquimod] (max concentration tested 2500 nM) , drug sensitivity score observed: 0.3

These entries and their values trace back to the supplement of paper PMC5908809.
